- measurement target: CYP2C9 (Homo sapiens, UniProt P11712)
- Construct: purchased Invitrogen 2859; host or cells: insect cells infected with baculovirus (microsomes)
- Sequence (P11712 whole entry): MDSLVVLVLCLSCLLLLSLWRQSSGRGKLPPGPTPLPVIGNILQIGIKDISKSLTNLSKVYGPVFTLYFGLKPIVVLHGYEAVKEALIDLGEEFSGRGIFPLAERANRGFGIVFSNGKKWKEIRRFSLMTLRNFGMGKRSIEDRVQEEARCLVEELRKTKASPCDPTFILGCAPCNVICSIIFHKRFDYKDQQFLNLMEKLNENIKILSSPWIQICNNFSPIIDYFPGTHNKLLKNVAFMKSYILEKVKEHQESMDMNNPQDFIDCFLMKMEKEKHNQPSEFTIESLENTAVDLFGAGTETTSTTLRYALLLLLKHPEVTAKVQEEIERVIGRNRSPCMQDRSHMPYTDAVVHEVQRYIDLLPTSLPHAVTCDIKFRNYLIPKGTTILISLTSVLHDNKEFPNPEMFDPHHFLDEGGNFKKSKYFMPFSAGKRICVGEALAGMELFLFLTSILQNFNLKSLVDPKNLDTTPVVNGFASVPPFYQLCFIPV
- assay name: Biological Test Example 7: CYP2C9 inhibition (naproxen O-demethylation)
- Assay type: in vitro ADME
metric: IC50 (µM)

Sample records with IC50:
C[C@@H](c1ccc(-c2nncs2)cc1)N1CC[C@](CC(C)(C)O)(c2ccccc2)OC1=O: 27.2
CCNC(=O)c1ccc(-c2ccc([C@H](C)N3CC[C@](CC(C)(C)O)(c4ccccc4)OC3=O)cc2)cn1: 15.1

I = Cc1cc(-c2ccc([C@H](C)N3CC[C@](CCCNS(C)(=O)=O)(c4ccc(F)cc4)OC3=O)cc2)ccn1
II = Cc1nn(C)cc1-c1ccc([C@H](C)N2CC[C@](CC(C)(C)O)(c3ccccc3)OC2=O)cc1
QUERY: Select one. Lower IC50: I or II Your answer should be the label of the entry you select.
RESULT: I

Every entry's value here was drawn from patent US8569292B2.
